# SYSTEM UNDER TEST: T1, murine GPC3-his protein (Sino Biological, Cat. No. 50989-M08B) (murine, UniProt Q8CFZ4 25-558)
# T1 construct: Bought protein; also called murine GPC3 protein
# T1 sequence (Q8CFZ4 25-558 limits assumed): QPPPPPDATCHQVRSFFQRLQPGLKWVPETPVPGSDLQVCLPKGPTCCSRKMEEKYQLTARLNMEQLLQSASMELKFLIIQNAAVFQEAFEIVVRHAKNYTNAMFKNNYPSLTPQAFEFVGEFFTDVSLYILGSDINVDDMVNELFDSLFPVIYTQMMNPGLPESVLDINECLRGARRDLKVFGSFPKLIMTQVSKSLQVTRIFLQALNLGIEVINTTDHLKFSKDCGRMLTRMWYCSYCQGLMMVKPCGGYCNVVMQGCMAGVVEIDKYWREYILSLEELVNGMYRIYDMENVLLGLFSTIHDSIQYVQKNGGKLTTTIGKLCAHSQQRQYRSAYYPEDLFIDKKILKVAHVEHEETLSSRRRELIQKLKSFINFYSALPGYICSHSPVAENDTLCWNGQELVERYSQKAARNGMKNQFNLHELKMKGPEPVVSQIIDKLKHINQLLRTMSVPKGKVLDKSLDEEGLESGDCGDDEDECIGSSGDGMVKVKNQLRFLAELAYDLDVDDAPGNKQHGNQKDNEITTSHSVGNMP
# MEASUREMENT DESCRIPTION: ELISA, coated murine GPC3-His;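 further: antigen coated on plates at 1 µg/mL, test antibody bound for 2 h at 37 °C, detected with HRP-conjugated secondary antibody and TMB substrate after acid stop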
Task for the reader: assign each of the following binders its reported OD450 at 0.001 nM antibody.

The binder identified as F1.136.7 human-murine chimeric antibody (antibody, human IgG1, kappa, V domains shown) VH: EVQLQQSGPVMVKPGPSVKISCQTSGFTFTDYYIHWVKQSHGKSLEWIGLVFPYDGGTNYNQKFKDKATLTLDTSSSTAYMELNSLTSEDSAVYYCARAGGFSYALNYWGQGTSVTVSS VL: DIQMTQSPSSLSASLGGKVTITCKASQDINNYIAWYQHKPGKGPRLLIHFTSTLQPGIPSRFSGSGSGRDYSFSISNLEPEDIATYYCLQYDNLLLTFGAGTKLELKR registered its OD450 at 0.001 nM antibody at 0.05 OD450 nm

OD450 at 0.001 nM antibody for F1.42.8 human-murine chimeric antibody (antibody, human IgG1, kappa, V domains shown) VH: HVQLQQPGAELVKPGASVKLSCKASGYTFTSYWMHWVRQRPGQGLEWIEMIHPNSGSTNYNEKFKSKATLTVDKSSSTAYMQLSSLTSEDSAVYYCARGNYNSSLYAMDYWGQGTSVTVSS VL: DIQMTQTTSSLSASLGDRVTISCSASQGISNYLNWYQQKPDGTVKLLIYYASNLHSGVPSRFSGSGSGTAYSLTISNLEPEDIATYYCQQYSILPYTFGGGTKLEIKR is 0.09 OD450 nm

The binder F2.92.1 human-murine chimeric antibody (antibody, human IgG1, kappa, V domains shown) VH: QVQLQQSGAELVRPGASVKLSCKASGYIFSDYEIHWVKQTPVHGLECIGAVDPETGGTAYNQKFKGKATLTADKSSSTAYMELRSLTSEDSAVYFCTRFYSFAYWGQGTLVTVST VL: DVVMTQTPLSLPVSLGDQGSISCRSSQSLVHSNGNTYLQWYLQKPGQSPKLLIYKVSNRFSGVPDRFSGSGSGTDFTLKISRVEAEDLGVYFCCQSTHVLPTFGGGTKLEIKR showed OD450 at 0.001 nM antibody equal to 0.05 OD450 nm
